- Tested on: LNCaP xenograft
- assay comment: Biodistribution of 68Ga-labeled compounds in mice bearing LNCaP xenograft
- Assay type: in vivo
- experimental context: Blood, 1 h p.i.
Quick reference for Biodistribution, Blood (Avg) among some compounds
measurement label: Biodistribution, Blood (Avg) (% ID/g)

compound	test target	observed value
O=C(O)CCCC(NC(=O)NC(COCCNC(=O)C(Cc1c2ccccc2cc2ccccc12)NC(=O)C1CCC(CNC(=O)CN2CCN(CC(=O)O)CCN(CC(=O)O)CCN(CC(=O)O)CC2)CC1)C(=O)O)C(=O)O.[68Ga] (stereo not drawn) [^68Ga-CCZ02011]	LNCaP xenograft	0.58
O=C(O)CSCC(NC(=O)NC(Cc1cn(CCNC(=O)C(Cc2c3ccccc3cc3ccccc23)NC(=O)C2CCC(CNC(=O)CN3CCN(CC(=O)O)CCN(CC(=O)O)CCN(CC(=O)O)CC3)CC2)nn1)C(=O)O)C(=O)O.[68Ga] (stereo not drawn) [^68Ga-CCZ01186]	LNCaP xenograft	0.72
O=C(O)CCCC(NC(=O)NC(CNC(=O)CNC(=O)C(Cc1c2ccccc2cc2ccccc12)NC(=O)C1CCC(CNC(=O)CN2CCN(CC(=O)O)CCN(CC(=O)O)CCN(CC(=O)O)CC2)CC1)C(=O)O)C(=O)O.[68Ga] (stereo not drawn) [68Ga-CCZ01198]	LNCaP xenograft	0.43
